meta.source: the supplement of paper PMC8728848

Biological target: Gal(b1-4)GlcNAc(b1-3)Gal(b1-4)Glc
Experiment: glycan array binding signal (z-score within array); higher = stronger binding
Settings: glycan notation: IUPAC condensed, linker removed
Shown is part of a subset that was picked to be rich in the strongest signals.
Record 1 (yes) whenever glycan array binding signal (z-score) is at -0.1 or higher; record 0 (no) when lower.

Does the reported glycan array binding signal (z-score) for FaeGad (Escherichia coli) (protein) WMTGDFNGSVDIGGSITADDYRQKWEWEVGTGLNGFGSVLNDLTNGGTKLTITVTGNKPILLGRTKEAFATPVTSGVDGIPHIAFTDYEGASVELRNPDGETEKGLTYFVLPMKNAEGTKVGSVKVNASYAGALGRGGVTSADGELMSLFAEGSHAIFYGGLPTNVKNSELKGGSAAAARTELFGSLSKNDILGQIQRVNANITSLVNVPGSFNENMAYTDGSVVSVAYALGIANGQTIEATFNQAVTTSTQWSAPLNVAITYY fall at or above the -0.1 mark?
1 (yes)

Repeat with Epf (Streptococcus pyogenes) (protein) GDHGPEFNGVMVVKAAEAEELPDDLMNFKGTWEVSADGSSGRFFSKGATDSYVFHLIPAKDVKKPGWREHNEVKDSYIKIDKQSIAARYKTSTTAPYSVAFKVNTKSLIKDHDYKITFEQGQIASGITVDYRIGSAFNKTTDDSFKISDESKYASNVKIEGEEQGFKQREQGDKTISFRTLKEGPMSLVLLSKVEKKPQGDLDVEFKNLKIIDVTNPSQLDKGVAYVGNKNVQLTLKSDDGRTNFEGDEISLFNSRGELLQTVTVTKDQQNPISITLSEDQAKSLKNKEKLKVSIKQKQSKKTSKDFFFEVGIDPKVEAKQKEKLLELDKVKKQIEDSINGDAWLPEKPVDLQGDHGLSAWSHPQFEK
0 (no)

Repeat with BabA (Helicobacter pylori), O52269_HELPY (protein) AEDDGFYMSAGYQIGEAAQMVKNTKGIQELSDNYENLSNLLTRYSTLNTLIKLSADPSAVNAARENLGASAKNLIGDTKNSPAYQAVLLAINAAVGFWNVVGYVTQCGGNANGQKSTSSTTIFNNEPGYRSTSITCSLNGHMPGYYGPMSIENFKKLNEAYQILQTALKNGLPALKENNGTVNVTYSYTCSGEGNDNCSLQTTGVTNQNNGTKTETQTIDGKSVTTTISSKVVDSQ
0 (no)

Repeat with F17-L (Escherichia coli) (protein) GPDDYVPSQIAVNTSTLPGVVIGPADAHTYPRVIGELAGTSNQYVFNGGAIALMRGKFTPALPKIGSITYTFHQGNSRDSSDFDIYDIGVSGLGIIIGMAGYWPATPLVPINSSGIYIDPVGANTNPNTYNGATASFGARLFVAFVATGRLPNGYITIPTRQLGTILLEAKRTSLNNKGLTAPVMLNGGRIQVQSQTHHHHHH
1 (yes)

Repeat with F4 (Escherichia coli), A0A6L9DDF0 (protein) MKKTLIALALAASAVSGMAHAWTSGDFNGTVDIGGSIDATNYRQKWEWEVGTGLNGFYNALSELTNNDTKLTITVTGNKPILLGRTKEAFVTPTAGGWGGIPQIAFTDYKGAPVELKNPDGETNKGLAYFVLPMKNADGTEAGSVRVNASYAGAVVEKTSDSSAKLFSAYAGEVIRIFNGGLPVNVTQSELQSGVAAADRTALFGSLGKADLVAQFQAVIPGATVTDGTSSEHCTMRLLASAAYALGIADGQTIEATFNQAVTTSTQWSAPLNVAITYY
0 (no)

Repeat with Epa1 (Candida glabrata) (protein) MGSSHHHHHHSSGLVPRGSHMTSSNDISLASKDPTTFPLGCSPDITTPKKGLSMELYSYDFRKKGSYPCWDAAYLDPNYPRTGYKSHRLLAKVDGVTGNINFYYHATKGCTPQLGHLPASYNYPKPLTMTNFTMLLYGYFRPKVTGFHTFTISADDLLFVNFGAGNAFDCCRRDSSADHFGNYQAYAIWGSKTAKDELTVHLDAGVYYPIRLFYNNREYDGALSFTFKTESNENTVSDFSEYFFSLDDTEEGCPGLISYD
1 (yes)

Repeat with F17aG (Escherichia coli), Q99003 (protein) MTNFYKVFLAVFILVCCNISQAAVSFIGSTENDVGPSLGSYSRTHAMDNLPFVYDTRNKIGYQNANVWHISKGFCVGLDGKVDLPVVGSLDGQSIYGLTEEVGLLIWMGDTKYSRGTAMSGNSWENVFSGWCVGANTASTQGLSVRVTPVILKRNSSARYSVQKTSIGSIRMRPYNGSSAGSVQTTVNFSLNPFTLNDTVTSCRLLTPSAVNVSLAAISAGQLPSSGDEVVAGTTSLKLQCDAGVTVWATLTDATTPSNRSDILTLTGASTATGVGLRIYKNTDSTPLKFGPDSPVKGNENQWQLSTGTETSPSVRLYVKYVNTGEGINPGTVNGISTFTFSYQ
0 (no)

Repeat with PEB1 (Campylobacter jejuni), Q0P9X8 (protein) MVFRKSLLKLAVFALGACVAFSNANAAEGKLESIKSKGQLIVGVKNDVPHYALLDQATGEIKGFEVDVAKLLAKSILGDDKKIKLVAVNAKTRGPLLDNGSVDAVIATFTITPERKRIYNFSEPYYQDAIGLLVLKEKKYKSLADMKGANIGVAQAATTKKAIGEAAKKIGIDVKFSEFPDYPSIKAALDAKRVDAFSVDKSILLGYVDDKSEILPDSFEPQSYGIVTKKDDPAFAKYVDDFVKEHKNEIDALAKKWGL
0 (no)
